assay: The drug is tested on WLS-310 corresponding to human gut metagenome with ENA study accession number: PRJEB37062 and ENA sample accession number: ERS12561785 for biotransformation under anaerobic condition. The drug concentrations were measured over 9 timepoints collected between 0 and 24 hours of incubation by liquid-chromatography-coupled mass spectrometry (LC–MS); details: 2 µM; also: call rule not given here
Readout name: Bacterial Biotransformation

Output Bacterial Biotransformation of N=C(N)NC(=O)Cc1c(Cl)cccc1Cl [GUANFACINE]
Compound NOT metabolized

Give reported Bacterial Biotransformation value for CC(C)(C)NCC(O)COc1cccc2c1CC(O)C(O)C2 (centres undefined) [NADOLOL]
Compound metabolized

Given the compound CC(C)NCC(O)COc1ccc(CC(N)=O)cc1 (centres undefined) [ATENOLOL] , write its reported Bacterial Biotransformation.
Compound metabolized

Specify Bacterial Biotransformation for CCOC(=O)C1=C[C@]2(CC)CCCN3CCc4c(n1c1ccccc41)[C@@H]32 [VINPOCETINE] and stop.
Compound metabolized

State its Bacterial Biotransformation for this compound: O=C(O)CCC(=O)O.O=C(O[C@H]1CN2CCC1CC2)N1CCc2ccccc2[C@@H]1c1ccccc1 [SOLIFENACIN SUCCINATE]
Compound NOT metabolized

More entries:
Input CCOc1ccc2nc(S(N)(=O)=O)sc2c1 [ETHOXZOLAMIDE] , output reported Bacterial Biotransformation.
Compound NOT metabolized

Write down Bacterial Biotransformation measured for item CCOc1cc(CC(=O)N[C@@H](CC(C)C)c2ccccc2N2CCCCC2)ccc1C(=O)O [REPAGLINIDE]
Compound metabolized

Specify Bacterial Biotransformation for CN1CCC[C@@H]1CCO[C@](C)(c1ccccc1)c1ccc(Cl)cc1.O=C(O)/C=C/C(=O)O [CLEMASTINE FUMARATE] and stop.
Compound metabolized

Recall and state the measured Bacterial Biotransformation for CC1Cc2ccccc2N1NC(=O)c1ccc(Cl)c(S(N)(=O)=O)c1 (centres undefined) [INDAPAMIDE] .
Compound NOT metabolized

* * *

settings: human gut metagenome, 24 h, 2 µM
Readout name: Bacterial Biotransformation

Known results for compounds:
Give reported Bacterial Biotransformation value for CC1Cc2ccccc2N1NC(=O)c1ccc(Cl)c(S(N)(=O)=O)c1 (centres undefined) [INDAPAMIDE]
Compound NOT metabolized

Look up and state reported Bacterial Biotransformation for COc1ccc2cc([C@H](C)C(=O)O)ccc2c1
Compound NOT metabolized

Consider the compound CCCC(C)(COC(N)=O)COC(=O)NC(C)C (centres undefined) . State its measured Bacterial Biotransformation.
Compound metabolized

State its Bacterial Biotransformation for this compound: CN(C)C(=O)Oc1cccc([N+](C)(C)C)c1.[Br-] [NEOSTIGMINE BROMIDE]
Compound NOT metabolized

Using the record for CNCC[C@H](Oc1cccc2ccccc12)c1cccs1 , state its measured Bacterial Biotransformation.
Compound NOT metabolized

Consider the compound CCOC(=O)[C@H](CCc1ccccc1)N[C@@H](C)C(=O)N1Cc2ccccc2C[C@H]1C(=O)O and give its recorded Bacterial Biotransformation.
Compound metabolized

Please report Bacterial Biotransformation for the following compound: CN1[C@@H]2CC[C@H]1C[C@@H](OC(=O)[C@H](CO)c1ccccc1)C2
Compound NOT metabolized

For the compound CCOC(=O)C1=C(C)NC(C)=C(C(=O)OC)C1c1cccc([N+](=O)[O-])c1 (centres undefined) , give its reported Bacterial Biotransformation.
Compound metabolized

Others:
Output Bacterial Biotransformation of COc1ccccc1OCCNCC(O)COc1cccc2[nH]c3ccccc3c12 (centres undefined)
Compound NOT metabolized

Name the recorded Bacterial Biotransformation of the item CC(C)[C@H]1CC[C@H](C(=O)N[C@H](Cc2ccccc2)C(=O)O)CC1 [NATEGLINIDE] in your answer.
Compound metabolized

* * *

assay: The drug is tested on WLS-027 corresponding to human gut metagenome with ENA study accession number: PRJEB37062 and ENA sample accession number: ERS12561744 for biotransformation under anaerobic condition. The drug concentrations were measured over 9 timepoints collected between 0 and 24 hours of incubation by liquid-chromatography-coupled mass spectrometry (LC–MS); settings: 2 µM
Readout name: Bacterial Biotransformation

Below, 5 compounds whose answers are already recorded.
Read the entry COc1ccc(CN2CCNCC2)c(OC)c1OC.Cl.Cl [TRIMETAZIDINE DIHYDROCHLORIDE] and write its reported Bacterial Biotransformation.
Compound NOT metabolized

// Input: COc1ccc(/C=C/C(=O)Nc2ccccc2C(=O)O)cc1OC . Output its Bacterial Biotransformation only.
Compound metabolized

Complete the entry with Bacterial Biotransformation for COc1ccc(Cc2nccc3cc(OC)c(OC)cc23)cc1OC [PAPAVERINE]
Compound metabolized

Provide only the value of recorded Bacterial Biotransformation for OC(c1cc(C(F)(F)F)nc2c(C(F)(F)F)cccc12)C1CCCCN1 (centres undefined) [MEFLOQUINE]
Compound metabolized

Hello, please tell me recorded Bacterial Biotransformation for this one: CC(=O)CCCCn1c(=O)c2c(ncn2C)n(C)c1=O [PENTOXIFYLLINE]
Compound NOT metabolized

New cases:
Report Bacterial Biotransformation, nothing else, for this compound: CC(=O)O[C@H]1C(=O)[C@@]2(C)[C@H]([C@H](OC(=O)c3ccccc3)[C@]3(O)C[C@H](OC(=O)[C@H](O)[C@@H](NC(=O)c4ccccc4)c4ccccc4)C(C)=C1C3(C)C)[C@]1(OC(C)=O)CO[C@@H]1C[C@@H]2O [PACLITAXEL]
Compound metabolized

Item COc1ccc2cc([C@H](C)C(=O)O)ccc2c1 [NAPROXEN] : provide Bacterial Biotransformation
Compound metabolized

Look up and state reported Bacterial Biotransformation for O=C(O)c1cc(/N=N/c2ccc(S(=O)(=O)Nc3ccccn3)cc2)ccc1O [SULFASALAZINE]
Compound metabolized

Output Bacterial Biotransformation of CSc1ccc2c(c1)C(N1CCN(C)CC1)Cc1ccccc1S2.O=C(O)/C=C\C(=O)O (centres undefined)
Compound NOT metabolized

Return Bacterial Biotransformation for the following compound: CC(C)NCC(O)COc1ccc(CC(N)=O)cc1 (centres undefined) [ATENOLOL]
Compound NOT metabolized

Answer with the recorded Bacterial Biotransformation of CC(C)(C)NCC(O)COc1cccc2c1CC(O)C(O)C2 (centres undefined) [NADOLOL] only.
Compound NOT metabolized

State, in one line, measured Bacterial Biotransformation of N#Cc1ccc2[nH]cc(CCCCN3CCN(c4ccc5oc(C(N)=O)cc5c4)CC3)c2c1 [VILAZODONE]
Compound metabolized

Supply Bacterial Biotransformation value. Item: CC12CC3CC(C)(C1)CC(N)(C3)C2 [MEMANTINE]
Compound NOT metabolized

Hello, please tell me recorded Bacterial Biotransformation for this one: CN(C)CCOC(C)(c1ccccc1)c1ccccn1.O=C(O)CCC(=O)O (centres undefined) [DOXYLAMINE SUCCINATE]
Compound NOT metabolized

Recall and state the measured Bacterial Biotransformation for CCOC(=O)C1=C(C)NC(C)=C(C(=O)OC)C1c1cccc([N+](=O)[O-])c1 (centres undefined) [NITRENDIPINE] .
Compound metabolized

Look up and state reported Bacterial Biotransformation for Cc1nc(Nc2ncc(C(=O)Nc3c(C)cccc3Cl)s2)cc(N2CCN(CCO)CC2)n1 [DASATINIB ANHYDROUS]
Compound metabolized

Check the records and state Bacterial Biotransformation for CCOC(=O)C1=C[C@]2(CC)CCCN3CCc4c(n1c1ccccc41)[C@@H]32 [VINPOCETINE]
Compound metabolized

Check the records and state Bacterial Biotransformation for CC(C)C[C@H]1C(=O)N2CCC[C@H]2[C@]2(O)O[C@](NC(=O)[C@@H]3C=C4c5cccc6[nH]c(Br)c(c56)C[C@H]4N(C)C3)(C(C)C)C(=O)N12.CS(=O)(=O)O [BROMOCRIPTINE MESYLATE]
Compound metabolized

* * *

details: human gut metagenome, 24 h, 2 µM
Readout name: Bacterial Biotransformation

Return Bacterial Biotransformation (reported value) for this compound: CN1[C@@H]2CC[C@H]1C[C@@H](OC(=O)c1c[nH]c3ccccc13)C2
Compound NOT metabolized

Report Bacterial Biotransformation for CCOc1ccc2nc(S(N)(=O)=O)sc2c1 [ETHOXZOLAMIDE]
Compound NOT metabolized

Return the recorded Bacterial Biotransformation value; entry: CCN(C)C(=O)Oc1cccc([C@H](C)N(C)C)c1.O=C(O)C(O)C(O)C(=O)O [RIVASTIGMINE TARTRATE]
Compound metabolized

Please report Bacterial Biotransformation for the following compound: CC(=O)Oc1ccc(C(c2ccc(OC(C)=O)cc2)c2ccccn2)cc1
Compound metabolized

Supply Bacterial Biotransformation value. Item: CC(C)c1nc(N(C)S(C)(=O)=O)nc(-c2ccc(F)cc2)c1/C=C/[C@@H](O)C[C@@H](O)CC(=O)[O-].CC(C)c1nc(N(C)S(C)(=O)=O)nc(-c2ccc(F)cc2)c1/C=C/[C@@H](O)C[C@@H](O)CC(=O)[O-].[Ca+2]
Compound NOT metabolized

Proceed to the following item.
Tell me measured Bacterial Biotransformation for CC(C)(C)N.CCC[C@H](N[C@@H](C)C(=O)N1[C@H](C(=O)O)C[C@@H]2CCCC[C@@H]21)C(=O)OCC please.
Compound NOT metabolized

The values you see were collected from ChEMBL document CHEMBL5724914.
